# test-system: T1, recombinant human CTLA4-Fc (Sino Biological, 11159-H03H) (human, UniProt P16410 37-162)
# T1 construct: bought; whole entry named; Biotinylated in the yeast display assays; also called human CTLA4 fused with human FC fragment; biotinylated CTLA4-Fc; not shown: human Fc fragment
# T1 sequence (looked up): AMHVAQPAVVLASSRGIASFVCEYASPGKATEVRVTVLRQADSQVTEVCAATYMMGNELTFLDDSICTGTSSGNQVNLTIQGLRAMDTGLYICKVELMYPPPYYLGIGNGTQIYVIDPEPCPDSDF
# test-summary: ELISA, coated human CTLA4-Fc, batch 2
We begin with a simple list: items and their reported LogEC50.
Response body: numeric value in log M, unit text excluded.

# binder, LogEC50 / log M
measured = [
    ("TY22566 (antibody, IgG1, V domains shown) VH: EVQLVESGGGLVQPGGSLRLSCAASGYSISSGYHWSWIRQAPGKGLEWLARIDWDDDKYYSTSLKSRLTISRDNSKNTLYLQLNSLRAEDTAVYYCARSYVYFDYWGQGTLVTVSS VL: EVGSYPNPASDCVPYYYACAYSGRSAGGGGSPLGLAGSGGSDIQLTQSPSSLSASVGDRVTITCRASQSVRGRFLAWYQQKPGKAPKLLIYDASNRATGIPSRFSGSGSGTDFTLTISSLQPEDFATYYCQQSSSWPPTFGQGTKVEIKR", -6.79),
    ("TY22564 (antibody, IgG1, V domains shown) VH: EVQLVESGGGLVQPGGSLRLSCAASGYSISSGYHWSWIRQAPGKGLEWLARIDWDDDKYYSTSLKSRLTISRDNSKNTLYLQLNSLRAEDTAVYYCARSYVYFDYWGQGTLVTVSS VL: EVGSYYSAYPACDSHYPYCNSAGRSAGGGGSPLGLAGSGGSDIQLTQSPSSLSASVGDRVTITCRASQSVRGRFLAWYQQKPGKAPKLLIYDASNRATGIPSRFSGSGSGTDFTLTISSLQPEDFATYYCQQSSSWPPTFGQGTKVEIKR", -7.41),
    ("TY22404 (antibody, IgG1, V domains shown, also called masking peptide B13197) VH: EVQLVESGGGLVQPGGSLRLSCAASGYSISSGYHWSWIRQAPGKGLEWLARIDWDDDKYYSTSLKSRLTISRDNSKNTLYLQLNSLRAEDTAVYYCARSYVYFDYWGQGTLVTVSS VL: EVGSYPNPSSDCVPYYYACAYSGRSAGGGGSPLGLAGSGGSDIQLTQSPSSLSASVGDRVTITCRASQSVRGRFLAWYQQKPGKAPKLLIYDASNRATGIPSRFSGSGSGTDFTLTISSLQPEDFATYYCQQSSSWPPTFGQGTKVEIKR", -6.89),
    ("TY22563 (antibody, IgG1, V domains shown) VH: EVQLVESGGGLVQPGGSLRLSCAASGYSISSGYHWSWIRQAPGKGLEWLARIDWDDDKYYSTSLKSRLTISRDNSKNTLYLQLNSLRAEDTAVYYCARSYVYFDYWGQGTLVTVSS VL: EVGSYYSAYPACDSHYPYCQSSGRSAGGGGSPLGLAGSGGSDIQLTQSPSSLSASVGDRVTITCRASQSVRGRFLAWYQQKPGKAPKLLIYDASNRATGIPSRFSGSGSGTDFTLTISSLQPEDFATYYCQQSSSWPPTFGQGTKVEIKR", -7.32),
]

Moving on to another binder below.
Record summary for TY22402 (antibody, IgG1, V domains shown, also called masking peptide B13180) VH: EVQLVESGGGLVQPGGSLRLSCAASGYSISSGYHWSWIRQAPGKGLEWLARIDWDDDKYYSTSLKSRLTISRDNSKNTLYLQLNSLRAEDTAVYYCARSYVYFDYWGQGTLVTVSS VL: EVGSYIVHHSDCDAFYPYCDSSGRSAGGGGSPLGLAGSGGSDIQLTQSPSSLSASVGDRVTITCRASQSVRGRFLAWYQQKPGKAPKLLIYDASNRATGIPSRFSGSGSGTDFTLTISSLQPEDFATYYCQQSSSWPPTFGQGTKVEIKR : reported LogEC50 = -6.9
